assay: Hematology assays in cynomolgus monkeys (Example 45); type: in vivo; details: day 85
EXPERIMENTAL_READOUT: lymphocytes (%)
Just the number please, in %, no unit attached.

SUBSTANCE | TEST_VALUE
ISIS 416858: MOE gapmer, nucleobases 1275 to 1318 of SEQ ID NO: 1 (Table 8) (antisense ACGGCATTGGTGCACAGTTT; MOE gapmer, wing and gap sizes not given here) | 52

Let us move to another entry and its lymphocytes.
I have this substance here, ISIS 416838: MOE gapmer, nucleobases 1018 to 1042 of SEQ ID NO: 1 (Table 6) (antisense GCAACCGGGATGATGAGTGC; MOE gapmer, wing and gap sizes not given here) , and I need its recorded lymphocytes.
72

---

experiment: Hematology assays in cynomolgus monkeys (Example 45); format: in vivo; settings: day 15; escalating dose regimen
EXPERIMENTAL_READOUT: WBC count (µL⁻¹)
Just the number please, in µL⁻¹, no unit attached.

I have this substance here, ISIS 416838: MOE gapmer, nucleobases 1018 to 1042 of SEQ ID NO: 1 (Table 6) (antisense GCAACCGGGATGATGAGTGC; MOE gapmer, wing and gap sizes not given here) , and I need its recorded WBC count.
10000

I have this substance here, ISIS 416864: MOE gapmer, nucleobases 1275 to 1318 of SEQ ID NO: 1 (Table 8) (antisense GGCAGCGGACGGCATTGGTG; MOE gapmer, wing and gap sizes not given here) , and I need its recorded WBC count.
10000

I have this substance here, ISIS 417002: MOE gapmer, nucleobases 1275 to 1318 of SEQ ID NO: 1 (Table 8) (antisense GGTGCACAGTTTCTGGCAGG; MOE gapmer, wing and gap sizes not given here) , and I need its recorded WBC count.
10000

I have this substance here, ISIS 416858: MOE gapmer, nucleobases 1275 to 1318 of SEQ ID NO: 1 (Table 8) (antisense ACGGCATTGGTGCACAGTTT; MOE gapmer, wing and gap sizes not given here) , and I need its recorded WBC count.
11000

I have this substance here, ISIS 416850: MOE gapmer, nucleobases 1275 to 1318 of SEQ ID NO: 1 (Table 8) (antisense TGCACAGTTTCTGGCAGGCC; MOE gapmer, wing and gap sizes not given here) , and I need its recorded WBC count.
9000

---

test system: Factor 11 protein; test: Factor 11 protein in monkey plasma by sandwich ELISA (Example 46); type: in vivo, cynomolgus monkeys; conditions: Day 31, plasma, 25 mg/kg subcutaneously
Strand notation (5' to 3'): a small letter for the sugar, then the base; units joined by * are phosphorothioate-linked, units joined directly phosphodiester-linked; [ ] holds rarer units or linkages, { } end groups; capitals alone tell only the bases. e = 2'-O-(2-methoxyethyl) (MOE); [5mC] = 5-methylcytosine; d = 2'-deoxy (DNA)
Output satisfied for Inhibition of Factor 11 protein relative to the PBS control (percentage reduction) not less than 40%; output not satisfied otherwise.

// known answers, use as guide
SUBSTANCE | LABEL_VALUE
449708 (antisense eA*e[5mC]*eA*dG*dT*dT*dT*d[5mC]*dT*dG*dG*e[5mC]*eA*eG) [compound 449708] | not satisfied
449709 (antisense eG*e[5mC]*eA*e[5mC]*dA*dG*dT*dT*dT*d[5mC]*dT*dG*dG*d[5mC]*eA*eG*eG*e[5mC]) [compound 449709] | satisfied
449710 (antisense e[5mC]*eA*e[5mC]*dA*dG*dT*dT*dT*d[5mC]*dT*dG*dG*d[5mC]*eA*eG*eG) [compound 449710] | not satisfied
416858 (antisense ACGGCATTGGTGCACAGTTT; 5-10-5 gapmer, further chemistry not given here) [compound 416858] | satisfied
449711 (antisense eA*e[5mC]*dA*dG*dT*dT*dT*d[5mC]*dT*dG*dG*d[5mC]*eA*eG) [compound 449711] | not satisfied

Does the substance 416850 (antisense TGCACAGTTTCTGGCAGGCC; 5-10-5 gapmer, further chemistry not given here) [compound 416850] have recorded Inhibition of Factor 11 protein relative to the PBS control (percentage reduction) that is 40% or more?
satisfied
